# TESTED SYSTEM: dopamine D5 receptor (Homo sapiens (Human), UniProt P21918)
# Sequence (P21918 whole entry): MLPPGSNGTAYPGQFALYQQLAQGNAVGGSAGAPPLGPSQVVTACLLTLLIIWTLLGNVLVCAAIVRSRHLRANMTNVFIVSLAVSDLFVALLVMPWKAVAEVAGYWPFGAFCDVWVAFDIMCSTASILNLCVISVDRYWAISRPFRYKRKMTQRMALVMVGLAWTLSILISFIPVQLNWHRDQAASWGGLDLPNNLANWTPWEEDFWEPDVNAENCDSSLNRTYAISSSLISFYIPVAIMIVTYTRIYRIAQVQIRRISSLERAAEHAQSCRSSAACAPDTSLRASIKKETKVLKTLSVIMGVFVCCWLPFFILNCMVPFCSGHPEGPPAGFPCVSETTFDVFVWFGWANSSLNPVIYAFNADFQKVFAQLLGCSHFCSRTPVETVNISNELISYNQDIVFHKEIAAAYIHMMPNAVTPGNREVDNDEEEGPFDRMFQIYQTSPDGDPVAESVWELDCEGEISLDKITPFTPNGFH
READOUT TYPE: Ki (µM)
Please reply with the bare figure in µM and do not write the unit itself.

Kindly indicate its recorded Ki. Item: COc1cccc(OC[C@@H]2CN(CCN3CCc4ccccc43)CCO2)c1 [Compound 25s] 8.53

----------
Measured Ki accompanies every entry in the list below.
# TESTED SYSTEM: dopamine D4 receptor (Homo sapiens (Human), UniProt P21917)
# Sequence (P21917 whole entry, species assumed): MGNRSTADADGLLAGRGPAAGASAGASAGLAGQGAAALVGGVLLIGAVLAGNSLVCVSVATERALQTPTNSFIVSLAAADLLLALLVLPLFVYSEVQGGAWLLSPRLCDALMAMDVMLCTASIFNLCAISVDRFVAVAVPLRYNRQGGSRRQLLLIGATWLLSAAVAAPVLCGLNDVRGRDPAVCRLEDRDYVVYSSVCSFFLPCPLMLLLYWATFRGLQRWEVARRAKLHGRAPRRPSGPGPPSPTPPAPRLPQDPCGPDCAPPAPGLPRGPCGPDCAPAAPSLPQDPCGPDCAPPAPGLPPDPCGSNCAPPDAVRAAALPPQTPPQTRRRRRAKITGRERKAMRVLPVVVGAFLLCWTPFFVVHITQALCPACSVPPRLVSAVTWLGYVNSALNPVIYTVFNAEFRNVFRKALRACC
# ASSAY METHOD TEXT: Secondary radioligand binding assay, D4
# EXPERIMENTAL CONTEXT: read-out: Ki dopamine D4 (relatively high affinity)
# Method: 1. Secondary Radioligand Binding Assays The detailed experimental protocols for the radioligand and functional receptor assays are available on the NIMH PDSP website at http://pdsp.med.unc.edu/UNC-CH %20Protocol %20Book.pdf. Radioligand is diluted to five times the assay concentration (see Table 18) in Standard Binding Buffer. Typically, the assay concentration of radioligand is a value between one half the KD and the KD of a particular radioligand at its target. […]

[
  {
    "COMPOUND": "Cc1ncccc1OC[C@@H]1CN(CCN2CCc3ccccc32)CCO1 [Compound 26s]",
    "TESTED SYSTEM": "dopamine D4 receptor (Homo sapiens (Human), UniProt P21917)",
    "MEAS VALUE": "< 1000 nM"
  }
]

Okay, next one:
Supply Ki value. Item: Cc1ccc(OC[C@@H]2CN(CCN3CCc4ccccc43)CCO2)cn1 [Compound 28s] < 1000 nM
